Target: Tyrosyl-DNA phosphodiesterase 1 (Homo sapiens, UniProt Q9NUW8)
Sequence (Q9NUW8 whole entry): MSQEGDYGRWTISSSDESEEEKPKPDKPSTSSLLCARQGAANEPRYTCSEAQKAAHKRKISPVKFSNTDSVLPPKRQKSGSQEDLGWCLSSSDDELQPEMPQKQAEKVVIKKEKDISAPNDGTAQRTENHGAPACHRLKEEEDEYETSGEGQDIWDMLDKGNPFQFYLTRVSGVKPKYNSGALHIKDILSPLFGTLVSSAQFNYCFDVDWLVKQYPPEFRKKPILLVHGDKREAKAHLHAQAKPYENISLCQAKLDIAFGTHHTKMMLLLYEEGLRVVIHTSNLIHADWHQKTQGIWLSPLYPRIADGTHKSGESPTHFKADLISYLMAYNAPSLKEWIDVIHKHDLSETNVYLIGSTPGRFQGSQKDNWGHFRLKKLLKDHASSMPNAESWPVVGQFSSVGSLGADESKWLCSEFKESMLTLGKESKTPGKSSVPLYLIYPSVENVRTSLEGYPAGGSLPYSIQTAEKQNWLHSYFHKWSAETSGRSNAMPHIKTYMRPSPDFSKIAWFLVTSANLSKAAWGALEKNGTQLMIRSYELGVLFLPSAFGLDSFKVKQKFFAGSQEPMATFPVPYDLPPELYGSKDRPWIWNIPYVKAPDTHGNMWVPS
Experiment: Inhibition of recombinant Tdp1 (unknown origin) assessed as decrease in hydrolysis of phosphodiester linkage between tyrosine residue and the 3' end of 5'-[32P]-DNA after 15 mins by PAGE analysis
MEASUREMENT_TYPE: IC50

As a guide, the following entries are already answered.
{"columns": ["COMPOUND", "IC50"],
 "data": [
  ["COc1cnc2c(c1)C(=O)c1c-2n(CCCN2CCN(C)CC2)c(=O)c2cc([N+](=O)[O-])ccc12", "12 to 37 µM"],
  ["COc1cc2c3c(n(CCCNCCO)c(=O)c2cc1OC)-c1cc2c(cc1C3=O)OCO2 [LMP-744]", "12 to 111 µM"],
  ["COc1cnc2c(c1)C(=O)c1c-2n(CCCNCCN2CCOCC2)c(=O)c2cc([N+](=O)[O-])ccc12", "12 to 37 µM"],
  ["CNCCCn1c2c(c3ccc([N+](=O)[O-])cc3c1=O)C(=O)c1cc(OC)cnc1-2", "1 to 12 µM"]
]}

For each entry beneath this line, provide reported IC50.
1. COc1cnc2c(c1)C(=O)c1c-2n(CCCBr)c(=O)c2cc([N+](=O)[O-])ccc12
2. COc1cnc2c(c1)C(=O)c1c-2n(CCCN2CCN(CCO)CC2)c(=O)c2cc([N+](=O)[O-])ccc12
3. COc1cnc2c(c1)C(=O)c1c-2n(CCCN2CCCC2)c(=O)c2cc([N+](=O)[O-])ccc12
4. COc1cnc2c(c1)C(=O)c1c-2n(CCCNC(C)C)c(=O)c2cc([N+](=O)[O-])ccc12

## Result
1. 12 to 37 µM
2. > 111 µM
3. 1 to 12 µM
4. 12 to 37 µM
